tested on: Mustard; assay: Preliminary herbicide seed germination test (pre-emergent), mustard; assay type: in vivo, Brassica pincea var. foliosa (Florida broadleaf); set-up: key: 5: no seedling emerged; 4: few seedlings emerged and/or very severe stunting; 3: moderate reduction in stand and/or moderate stunting.; 2: very slight reduction in stand and/or slight stunting; 1: no injury, seedlings appear no different with respect to stand or growth than untreated controls; details: Table II; ten to twelve days after application
Provide the reported Pre-emergent Herbicidal, Mustard of each item.
Give bare numbers.

Take a look at these entries with their results.
compound="CCCCC(CC)C(=O)OC1=C(c2cc(C)ccc2C)C(=O)C(C)C1 (stereo not drawn)" subject_of_test=Mustard value=1
compound="Cc1ccccc1C1=C(OC(=O)C(C)C)C2CCCCC2C1=O (stereo not drawn)" subject_of_test=Mustard value=3
compound="Cc1ccc(C)c(C2=C(OC(=O)C(C)(C)C)C3CCCCC3C2=O)c1 (stereo not drawn)" subject_of_test=Mustard value=1

Field: Pre-emergent Herbicidal, Mustard. Fill in for each record below.
1. Cc1ccc(C)c(C2=C(OC(=O)C(C)C)C3CCCCC3C2=O)c1 (stereo not drawn)
2. O=C1CCC(OC(=O)c2ccccc2)=C1c1ccccc1Cl
3. CC(=O)OC1=C(c2cc(C)ccc2C)C(=O)C(C)C1 (stereo not drawn)
4. CCCCC(CC)C(=O)OC1=C(c2ccccc2C)C(=O)C2CCCCC12 (stereo not drawn)
5. Cc1ccc(C2=C(OC(=O)c3ccccc3)CCC2=O)c(C)c1

Resp:
1: 1; 2: 1; 3: 2; 4: 1; 5: 1

Field: Pre-emergent Herbicidal, Mustard. Fill in for each record below.
1. CC(C)C(=O)OC1=C(c2ccc(Cl)cc2Cl)C(=O)CC1
2. CCCCC(CC)C(=O)OC1=C(c2ccccc2Cl)C(=O)CC1 (stereo not drawn)
3. CCCCCCCCCCCCCCCC(=O)OC1=C(c2ccccc2C)C(=O)C2CCCCC12 (stereo not drawn)
4. CCCCC(CC)C(=O)OC1=C(c2cc(C)ccc2C)C(=O)CC1 (stereo not drawn)

Resp:
[1, 5, 3, 1]

Field: Pre-emergent Herbicidal, Mustard. Fill in for each record below.
1. CCCCCCCCCCCCCCCC(=O)OC1=C(c2ccc(Cl)cc2Cl)C(=O)CC1
2. CC(=O)OC1=C(c2ccccc2C)C(=O)C2CCCCC12 (stereo not drawn)
3. CCCCCCCCCCCCCCCC(=O)OC1=C(c2cc(C)ccc2C)C(=O)C(C)C1 (stereo not drawn)

Resp:
[1, 3, 1]

Field: Pre-emergent Herbicidal, Mustard. Fill in for each record below.
1. CCCCC(CC)C(=O)OC1=C(c2ccc(Cl)cc2Cl)C(=O)CC1 (stereo not drawn)
2. CCCCCCCCCCCCCCCC(=O)OC1=C(c2cc(C)ccc2C)C(=O)C2CCCCC12 (stereo not drawn)
3. Cc1ccccc1C1=C(OC(=O)C(C)(C)C)C2CCCCC2C1=O (stereo not drawn)
4. CC(=O)OC1=C(c2ccc(C)cc2C)C(=O)C2CCCCC12 (stereo not drawn)
5. CCCCC(CC)C(=O)OC1=C(c2ccc(C)cc2C)C(=O)C2CCCCC12 (stereo not drawn)
6. CCCCCCCCCCCCCCCC(=O)OC1=C(c2ccccc2C)C(=O)CC1
7. CCCCC(CC)C(=O)OC1=C(c2ccccc2C)C(=O)CC1 (stereo not drawn)

Resp:
1
1
3
3
1
1
1

----------
Provide the reported Post Emergent Herbicidal, Corn of each item.
test system: Corn; test: Post-emergent herbicidal test, corn; type: in vivo; parameters: key: 1: no perceptible injury; 2: intermediate degrees of injury; 3: intermediate degrees of injury; 4: intermediate degrees of injury; 5: the plant was dead; settings: Table III; 2500 parts per million, after ten days
Numbers only.

Field: Post Emergent Herbicidal, Corn. Fill in for each record below.
1. CCCCCCCCCC(=O)OC1=C(c2cc(C)ccc2C)C(=O)C2CCCCC12 (centres unmarked) [drawing 19]
2. CCCCCCCCCCCCCCCC(=O)OC1=C(c2ccccc2C)C(=O)C2CCCCC12 (centres unmarked) [drawing 17]
3. CCCCC(CC)C(=O)OC1=C(c2ccccc2C)C(=O)CC1 (centres unmarked) [drawing 21]
4. CCCCCCCCCCCCCCCC(=O)OC1=C(c2ccccc2C)C(=O)c2ccccc21 [reference compound]
5. Cc1ccccc1C1=C(OC(=O)C(C)(C)C)c2ccccc2C1=O [reference compound]
6. CCCCCCCCCC(=O)OC1=C(c2ccccc2C)C(=O)C2CCCCC12 (centres unmarked) [drawing 15]

Resp:
1. 2
2. 2
3. 2
4. 1
5. 1
6. 5

// provenance: patent US4551547A
